Reference for the values: PubChem BioAssay

I'd appreciate it if you could supply fluorescence slope values for the items below.
assay.target: Voltage-gated potassium channel subunit beta-2 (Rattus norvegicus)
test.details: KvBeta enzyme negative modulators, primary screen, biochemical, NADPH fluorescence (AID 622);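 also: slope of raw intensity against log time taken from 70 to 1610 s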
applied.conditions: recombinant KvBeta, 4-cyanobenzaldehyde reduction, at 10 µM, stronger effect = higher value
A bare number is all that is needed in reply.

For reference, reported fluorescence slope for COCCCN1C(=O)C(O)=C(C(=O)c2ccco2)C1c1ccc(Br)cc1 (configuration not stated) stands at -0.457

For reference, reported fluorescence slope for Cc1ccc(C)n1Cc1ccc(C(=O)O)cc1 stands at -0.401

For reference, reported fluorescence slope for COc1ccccc1C(=O)N1CCCC1(C#N)c1ccccc1 (configuration not stated) stands at -0.475

For reference, reported fluorescence slope for Cc1[nH]nc2cn[nH]c12 stands at -0.526

For reference, reported fluorescence slope for CC(C)(C)NC(=O)CSc1nsc(SCC(=O)NC(C)(C)C)c1C#N stands at -0.412

For reference, reported fluorescence slope for O=C1C=C(O)CC(c2ccco2)C1 (configuration not stated) stands at -0.469

For reference, reported fluorescence slope for CC12CCC(C(=O)NCCCN3CCOCC3)(OC1=O)C2(C)C (configuration not stated) stands at -0.425
